Biological target: Cholecystokinin receptor type A (Rattus norvegicus, UniProt P30551)
Sequence (P30551 whole entry): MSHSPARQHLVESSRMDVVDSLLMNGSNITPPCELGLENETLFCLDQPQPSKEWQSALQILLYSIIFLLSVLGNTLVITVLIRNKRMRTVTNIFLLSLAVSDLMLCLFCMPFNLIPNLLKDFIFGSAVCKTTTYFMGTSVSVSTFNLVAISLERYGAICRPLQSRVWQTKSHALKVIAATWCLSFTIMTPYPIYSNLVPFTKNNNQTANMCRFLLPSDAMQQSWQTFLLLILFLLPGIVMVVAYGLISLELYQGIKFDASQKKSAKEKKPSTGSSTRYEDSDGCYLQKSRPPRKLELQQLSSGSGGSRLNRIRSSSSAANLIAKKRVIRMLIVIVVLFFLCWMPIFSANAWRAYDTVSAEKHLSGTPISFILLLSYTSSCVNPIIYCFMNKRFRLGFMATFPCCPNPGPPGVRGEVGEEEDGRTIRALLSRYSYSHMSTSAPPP
# IC50 annotations
Return type: number; implicit unit nM.

Fill blank: measured IC50 of the molecule `CCCN1C(=O)[C@H](NC(=O)Nc2ccc3c(c2)CCC3)N=C([C@H]2CC(C)(C)CCN2)c2ccccc21` is ____.
4020

Fill blank: measured IC50 of the molecule `CCN(CC)C(=O)CN1C(=O)[C@H](NC(=O)Nc2cccc(C)c2)N=C(c2cccc[n+]2C)c2ccccc21` is ____.
1750

Fill blank: measured IC50 of the molecule `CCCN1C(=O)[C@H](NC(=O)Nc2cccc(C)c2)N=C([C@@H]2CCCCN2)c2ccccc21` is ____.
3000

Fill blank: measured IC50 of the molecule `CCCN1C(=O)[C@H](NC(=O)Nc2cccc(C)c2)N=C([C@H]2CCCCN2C)c2ccccc21` is ____.
2090

Fill blank: measured IC50 of the molecule `CCCN1C(=O)[C@H](NC(=O)Nc2cccc(C)c2)N=C([C@H]2CCC(C)(C)CCN2)c2ccccc21` is ____.
1510

###

# IC50 annotations
target: Gastrin/cholecystokinin type B receptor (Cavia porcellus); assay: Inhibition of ligand binding to Cholecystokinin type B receptor from guinea pig cortical membrane.

CCN(CC)C(=O)CN1C(=O)C(NC(=O)Nc2cccc(C)c2)N=C(c2ccccn2)c2ccccc21 (configuration not stated); 0.56 nM

Fill blank: measured IC50 of the compound Cc1cccc(NC(=O)NC2N=C(c3ccccn3)c3ccccc3N(C)C2=O)c1 (configuration not stated) is ____.
66 nM
